assay: total protein half-life in vivo (active degradation + dilution); higher = more stable protein
test.context: wild type E. coli NCM3722; growth: C-lim chemostat; doubling time 6 h
measured.quantity: total protein half-life in vivo (h)

>>> result_number("MKLDEIARLAGVSRTTASYVINGKAKQYRVSDKTVEKVMAVVREHNYHPNAVAAGLRAGRTRSIGLVIPDLENTSYTRIANYLERQARQRGYQLLIACSEDQPDNEMRCIEHLLQRQVDAIIVSTSLPPEHPFYQRWANDPFPIVALDRALDREHFTSVVGADQDDAEMLAEELRKFPAETVLYLGALPELSVSFLREQGFRTAWKDDPREVHFLYANSYEREAAAQLFEKWLETHPMPQALFTTSFALLQGVMDVTLRRDGKLPSDLAIATFGDNELLDFLQCPVLAVAQRHRDVAERVLEIVLASLDEPRKPKPGLTRIKRNLYRRGVLSRS [P0ACP1]")
5.63

* * *

assay: total protein half-life in vivo (active degradation + dilution); higher = more stable protein
test.context: wild type E. coli NCM3722; growth: N-lim chemostat; doubling time 12 h
measured.quantity: total protein half-life in vivo (h)

>>> result_number("MTDKLTSLRQYTTVVADTGDIAAMKLYQPQDATTNPSLILNAAQIPEYRKLIDDAVAWAKQQSNDRAQQIVDATDKLAVNIGLEILKLVPGRISTEVDARLSYDTEASIAKAKRLIKLYNDAGISNDRILIKLASTWQGIRAAEQLEKEGINCNLTLLFSFAQARACAEAGVFLISPFVGRILDWYKANTDKKEYAPAEDPGVVSVSEIYQYYKEHGYETVVMGASFRNIGEILELAGCDRLTIAPALLKELAESEGAIERKLSYTGEVKARPARITESEFLWQHNQDPMAVDKLAEGIRKFAIDQEKLEKMIGDLL [P0A870]")
9.23
>>> result_number("MASQLTDAFARKFYYLRLSITDVCNFRCTYCLPDGYKPSGVTNKGFLTVDEIRRVTRAFARLGTEKVRLTGGEPSLRRDFTDIIAAVRENDAIRQIAVTTNGYRLERDVASWRDAGLTGINVSVDSLDARQFHAITGQDKFNQVMAGIDAAFEAGFEKVKVNTVLMRDVNHHQLDTFLNWIQHRPIQLRFIELMETGEGSELFRKHHISGQVLRDELLRRGWIHQLRQRSDGPAQVFCHPDYAGEIGLIMPYEKDFCATCNRLRVSSIGKLHLCLFGEGGVNLRDLLEDDTQQQALEARISAALREKKQTHFLHQNNTGITQNLSYIGG")
1.81

* * *

assay: total protein half-life in vivo (active degradation + dilution); higher = more stable protein
test.context: wild type E. coli NCM3722; growth: N-lim chemostat; doubling time 12 h
Below, each entry is listed alongside its reported total protein half-life in vivo.
measured.quantity: total protein half-life in vivo (h)

>>> result_number("MMIRERIEEKLRAAFQPVFLEVVDESYRHNVPAGSESHFKVVLVSDRFTGERFLNRHRMIYSTLAEELSTTVHALALHTYTIKEWEGLQDTVFASPPCRGAGSIA [P0ABE2]")
3.19
>>> result_number("MVLWQSDLRVSWRAQWLSLLIHGLVAAVILLMPWPLSYTPLWMVLLSLVVFDCVRSQRRINARQGEIRLLMDGRLRWQGQEWSIVKAPWMIKSGMMLRLRSDGGKRQHLWLAADSMDEAEWRDLRRILLQQETQR")
9.7
>>> result_number("MERVSITERPDWREKAHEYGFNFHTMYGEPYWCEDAYYKLTLAQVEKLEEVTAELHQMCLKVVEKVIASDELMTKFRIPKHTWSFVRQSWLTHQPSLYSRLDLAWDGTGEPKLLENNADTPTSLYEAAFFQWIWLEDQLNAGNLPEGSDQFNSLQEKLIDRFVELREQYGFQLLHLTCCRDTVEDRGTIQYLQDCATEAEIATEFLYIDDIGLGEKGQFTDLQDQVISNLFKLYPWEFMLREMFSTKLEDAGVRWLEPAWKSIISNKALLPLLWEMFPNHPNLLPAYFAEDDHPQMEKYVVKPIFSREGANVSIIENGKTIEAAEGPYGEEGMIVQQFHPLPKFGDSYMLIGSWLVNDQPAGIGIREDRALITQDMSRFYPHIFVE [P0ADT5]")
8.2
